Reference source for all entries: patent US20230295310A1

Molecular target: human CD3 (human, UniProt P07766 23-207; P04234 22-171; P09693 23-182)
Sequence (P07766 23-207, chain 1 of 3): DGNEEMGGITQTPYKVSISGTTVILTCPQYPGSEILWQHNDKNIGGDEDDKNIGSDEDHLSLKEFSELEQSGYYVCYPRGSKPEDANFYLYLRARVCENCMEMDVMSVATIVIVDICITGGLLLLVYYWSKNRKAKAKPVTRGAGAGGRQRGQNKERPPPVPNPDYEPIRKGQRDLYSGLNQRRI
Sequence (P04234 22-171, chain 2 of 3): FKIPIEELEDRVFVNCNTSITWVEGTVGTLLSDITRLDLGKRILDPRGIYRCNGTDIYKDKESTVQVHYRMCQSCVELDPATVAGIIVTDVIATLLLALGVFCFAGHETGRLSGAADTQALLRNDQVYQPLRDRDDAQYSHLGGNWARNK
Sequence (P09693 23-182, chain 3 of 3): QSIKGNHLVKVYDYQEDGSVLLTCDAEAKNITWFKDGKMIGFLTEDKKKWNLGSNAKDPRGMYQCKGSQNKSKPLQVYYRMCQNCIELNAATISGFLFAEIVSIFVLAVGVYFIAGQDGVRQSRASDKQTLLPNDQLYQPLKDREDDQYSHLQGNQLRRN
Assay: cell-based or functional assay
Quantity Measured: CD4 EC50 (nM); CD69/CD25 on human T cells, plate-coated antibody
Numbers only, in nM.

mAb 165 (antibody, V domains shown) VH: EVQLVESGGGLVKTGGSLRLSCVASGFSFKKAWMNWVRQAPGKGLEWVGRIKRNTDGGTADYAAPVKGRFTLSRDDSKRTLYLQMNSLKTEDTAVYYCTTLDSSSRYVGYYYMDVWGKGTTVTVSS VL: DIQMTQSPSSVSASVGDRVIITCRASQDINNWLAWYQQKPGKVPKLLIYTASSLQSGVPSRFSGSGSGTDFTLTIGSLQPEDFATYYCQQAHSLPITFGQGTRLEIK    6.48
mAb 120 (antibody, V domains shown) VH: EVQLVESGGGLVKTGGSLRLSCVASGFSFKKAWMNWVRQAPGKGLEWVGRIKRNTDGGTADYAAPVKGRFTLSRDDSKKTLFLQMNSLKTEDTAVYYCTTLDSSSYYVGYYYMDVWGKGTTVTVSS VL: DIQMTQSPSSVSASVGDRVTITCRASQDINNWLAWYQQKPGKAPKLLIYTASSLQSGVPSRFSGSGSGTDFTLTIGSLQPEDFATYYCQQAHSLPITFGQGTRLEIK    6.41
mAb 164 (antibody, V domains shown) VH: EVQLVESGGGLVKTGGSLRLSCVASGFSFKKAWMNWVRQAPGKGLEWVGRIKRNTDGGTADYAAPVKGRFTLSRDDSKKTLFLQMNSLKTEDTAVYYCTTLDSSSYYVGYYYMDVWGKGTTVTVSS VL: DIQMTQSPSSVSASVGDRVTITCRASQDIKNWLAWYQQKPGKAPKLLIYTASSLQSGVPSRFSGSGSGTDFTLTIGSLQPEDFATYYCQQAHSLPITFGQGTRLEIK    6.84
mAb 100 (antibody, V domains shown) VH: QVQLVESGGGVVQPGRSLRLSCVASGFTFRGYGMHWVRQAPGKGLEWVAIIYYDGKNKYYADSVKGRFTISRDNSKNTLYLQMNSLRVEDTALYYCARGGGYNWFDPWGQGTLVTVSS VL: DIQMTQSPSSLSASVGDRVTITCRASQSISTYLNWYQQKPGKAPKLLIYTASSLQSGVPSRFSGSGSGTVFTLTISSLQPEDFAIYYCQRSYSPPFTFGPGTRLDIK    13.1

Now take the following binder into account.
Exercise: Look at this binder and give its reported CD4 EC50 (nM); CD69/CD25 on human T cells, plate-coated antibody. mAb 126 (antibody, V domains shown) VH: EVQLVESGGGLVQPGRSLRLSCAASGFTFNDYTMHWVRQVPGKGLEWVSGISWNSGSIDYADSVKGRFTISRDNAKNSLYLQMNSLRAEDTALYYCAKDSSGYGYYYYYYMDVWGKGTTVTVSS VL: EIVMTQSPATLSVSPGERATLSCRASQSVSINLAWYQQKPGQAPRLLIYGASTRATGIPARFSGSGSGTEFTLTISSLQSEDFAVYYCQLYHNWPHFGQGTRLEIK
Key: 10.2
